- targetOrSystem: 5-hydroxytryptamine receptor 6 (Homo sapiens)
- Sequence (P50406 whole entry): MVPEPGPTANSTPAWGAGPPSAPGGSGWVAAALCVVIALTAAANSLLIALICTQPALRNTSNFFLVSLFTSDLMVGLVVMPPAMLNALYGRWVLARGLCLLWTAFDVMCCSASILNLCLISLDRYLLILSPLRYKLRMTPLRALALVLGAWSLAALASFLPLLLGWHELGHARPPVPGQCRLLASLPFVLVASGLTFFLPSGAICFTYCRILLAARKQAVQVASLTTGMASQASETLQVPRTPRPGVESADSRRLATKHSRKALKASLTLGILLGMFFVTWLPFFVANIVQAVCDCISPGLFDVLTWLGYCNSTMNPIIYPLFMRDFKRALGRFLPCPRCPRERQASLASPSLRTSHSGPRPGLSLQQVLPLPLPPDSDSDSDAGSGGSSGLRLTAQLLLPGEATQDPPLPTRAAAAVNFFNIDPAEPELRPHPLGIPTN
- assayComment: Binding affinity against human cloned 5-hydroxytryptamine 6 receptor in HeLa cells using [3H]LSD
parameterMeasured: Ki (nM)

>>> measurement("COc1ccc(NS(=O)(=O)c2ccc(Br)cc2)cc1N1CCN(C)CC1")
5.01
>>> measurement("COc1ccc(NS(=O)(=O)c2cc(I)ccc2C)cc1N1CCN(C)CC1")
1
>>> measurement("COc1ccc(NS(=O)(=O)c2c(C)sc3ccc(Cl)cc23)cc1N1CCN(C)CC1")
1.26
>>> measurement("CNc1cc(NS(=O)(=O)c2ccc(N)cc2)nc(NC)n1")
50.1
>>> measurement("COc1ccc(NS(=O)(=O)c2ccc3c(Cl)cccc3c2)cc1N1CCN(C)CC1")
0.794

P: COc1ccc(NS(=O)(=O)c2cc(Cl)cc(Cl)c2)cc1N1CCN(C)CC1
Q: COc1ccc(NS(=O)(=O)c2ccc([N+](=O)[O-])cc2)cc1N1CCN(C)CC1
Data request: Hi there! Just curious which has the higher Ki between P and Q . Answer by stating the label of the chosen item.
Data returned: Q
(Q: 79.4 nM, P: 2 nM)
